- Assay Overview: Quantitative High-Throughput drug screen in 47 multiple myeloma cell lines against the NCATS MIPE library collection: JJN3_DSMZ cell viability assay (AID 1918966; note: nearly all actives have a fitted effect of over 50% in size)
- Details: JJN3 myeloma cells viability, CellTiter-Glo ATP, 48 h; series mostly up to 45.8 µM
Inconclusive results are not listed. The source made the active and inactive calls. Calls come from the whole dose curve; as a rule, active = well fitted cell-killing curve with a large enough effect; inconclusive = small, poorly fitted or top-dose-only effect, or effect the other way; inactive = no such curve, though single readings can be large or run the other way.
Field 'call' accepts active, inactive

Answered cases to consult:
1. O=C(O)[C@H]1O[C@H](Oc2cc3oc(-c4ccccc4)cc(=O)c3c(O)c2O)[C@H](O)[C@@H](O)[C@H]1O
active
2. O=c1cc(N2CCOCC2)oc2c(-c3cccc4c3sc3ccccc34)cccc12
active
3. O=C(O)c1c(Cl)c(Cl)c(Cl)c(Cl)c1-c1c2cc(I)c(=O)c(I)c-2oc2c(I)c(O)c(I)cc12
active
4. CNC(=O)c1ccc2cc(C3(O)CCn4cncc43)ccc2c1 (configuration not stated)
inactive
5. Oc1ccc(C2CCN(c3ccnc4ccccc34)CC2)cc1O
active

Recorded test outcome, item COc1cc2nc(-c3ccc(N4CCN(C)CC4)cc3)nc(NCCN3CCOCC3)c2cc1OC
active

Write down the call the test reported for this compound. Item: Cc1ccc(C(=O)Nc2cccc(C(F)(F)F)c2)cc1Nc1nc(-c2cccnc2)nc2c1cnn2C
active

Outcome? Nc1ncnc2c1nc(Cl)n2[C@@H]1O[C@H](CO)[C@@H](O)[C@@H]1O
active

Write down the call the test reported for this compound. Item: COCCOc1nc(-c2ccc(Cl)c(Cl)c2)n(-c2ccc(NC(=O)CCl)cc2)n1
active

Write down the call the test reported for this compound. Item: CS(=O)c1ccc(-c2nc(-c3ccc(F)cc3)c(-c3ccncc3)[nH]2)cc1 (configuration not stated)
active

Kindly provide the recorded test outcome for the following compound: Cc1ccc(F)c(NC(=O)Nc2ccc(-c3cccc4[nH]nc(N)c34)cc2)c1
active

// param item: c1cc(-c2sc(-c3ccncc3)c(-c3ccncc3)c2-c2ccncc2)ccn1 ; yields the recorded call
active

State the result this test recorded for Oc1ccc(C2=Cc3ccc(O)cc3OC2)cc1 .
active

Recorded call for Nc1ncnc2ccccc12 ?
inactive

// outcome(item) with item = CCC(=O)O[C@]1(C(=O)CO)CC[C@H]2[C@@H]3CCC4=CC(=O)CC[C@]4(C)[C@@H]3CC[C@@]21C
inactive

Check the results log: what was the call for CC1CCC(C(=O)N(c2cc(C#CC(C)(C)C)sc2C(=O)O)C2CCC(O)CC2)CC1 (configuration not stated) ?
active

I would be grateful if you could indicate the recorded call for O=C(O)CCC1CCC(c2cc(F)ccc2F)(S(=O)(=O)c2ccc(Cl)cc2)CC1 (configuration not stated) .
inactive

In this assay, the call recorded for COc1ccc(-c2oc3c(CC=C(C)C)c(OC4O[C@H](CO)[C@@H](O)[C@H](O)[C@@H]4O)cc(O)c3c(=O)c2OC2O[C@@H](C)[C@H](O)[C@@H](O)[C@@H]2O)cc1 (some centres not stated) was what?
active

# fetch the recorded call for Nc1nc(F)nc2c1ncn2[C@@H]1O[C@H](COP(=O)(O)O)[C@@H](O)[C@H]1O here
inactive

###

- Assay Overview: MultiTox-Fluor Cytotoxicity Assay - LYMP1-003 - Dead Cells (AID 961);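 note: cells exposed to compound for 16 h at 37 °C; nearly all actives have a fitted effect of over 70% in size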
- Details: LYMP1-003 lymphoblastoid cells, dead-cell protease fluorescence; series mostly up to 92.2 µM
Active and inactive are the calls of the source. The call rests on the fitted dose curve; in most records, active means well fitted cell-killing curve with a large enough effect; inconclusive means small, poorly fitted or top-dose-only effect, or effect the other way; inactive means flat fitted curve, though single readings scatter.
Value Type: outcome

Solved cases below.
1. O=c1c(-c2ccc(O)cc2)coc2cc(O)ccc12
inactive
2. CCn1cc(C(=O)O)c(=O)c2ccc(C)nc21
inactive
3. O=C1NC(=O)C(c2ccccc2)(c2ccccc2)N1
inactive
4. CC(=O)O[C@]1(C(C)=O)CC[C@H]2[C@@H]3C=C(Cl)C4=CC(=O)[C@@H]5C[C@@H]5[C@]4(C)[C@H]3CC[C@@]21C
inactive

Recorded outcome of O=C(O)c1cc(O)c2c(c1)C(=O)c1cccc(O)c1C2=O , please.
inactive

// returns reported outcome for input CN(C)CCC(c1ccccc1)c1ccccn1 (stereo unspecified)
inactive
